- Tested System: human LPA1 (Homo sapiens, UniProt Q92633)
- Construct: expressed in transfected cells; host or cells: CHO-K1
- Sequence (Q92633 whole entry): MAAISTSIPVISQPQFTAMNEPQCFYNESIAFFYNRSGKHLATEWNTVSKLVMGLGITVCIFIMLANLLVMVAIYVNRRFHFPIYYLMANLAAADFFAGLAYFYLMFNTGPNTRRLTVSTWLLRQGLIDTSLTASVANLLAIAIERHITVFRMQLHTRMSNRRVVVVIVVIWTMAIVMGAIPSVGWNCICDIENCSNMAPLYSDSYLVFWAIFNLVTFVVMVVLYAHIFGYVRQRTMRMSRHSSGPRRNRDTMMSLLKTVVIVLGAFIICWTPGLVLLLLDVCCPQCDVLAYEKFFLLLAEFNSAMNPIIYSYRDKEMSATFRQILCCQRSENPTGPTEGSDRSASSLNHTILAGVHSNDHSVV
- Assay Method Text: In vitro LPA1 calcium flux antagonist assay - Bioduro protocol
- Assay type: cell-based
- Measurement Conditions: Table B3; CHO-K1 cells overexpressing human LPA1 and G15a, LPA challenge at EC80; read-out: Activity (IC50 class)
Measured Attribute: IC50

# Molecule, Tested System, Endpoint Result
measured = [
    ("COc1cc(-c2ccc(NC3(C(=O)O)CCOCC3)cc2COC2CCCC2)c(F)c(OC)c1C", "human LPA1 (Homo sapiens, UniProt Q92633)", "< 0.1 µM"),
    ("CCOc1cccc(-c2ccc(OC3(C(=O)O)CCC3)cc2COC2CC2)c1", "human LPA1 (Homo sapiens, UniProt Q92633)", "> 1 µM"),
    ("COc1cc(-c2ccc(NC3(C(=O)O)CCOCC3)cc2COC2Cc3ccccc3C2)cc(OC)c1C", "human LPA1 (Homo sapiens, UniProt Q92633)", "< 0.1 µM"),
    ("COc1cc(-c2ccc(N(C)CCC(=O)O)cc2COC2Cc3ccccc3C2)cc(OC)c1C", "human LPA1 (Homo sapiens, UniProt Q92633)", "> 1 µM"),
    ("CCCOCc1cc(NC2(C(=O)O)CCOCC2)ccc1-c1cc(OC)c(C)c(OC)c1F", "human LPA1 (Homo sapiens, UniProt Q92633)", "< 0.1 µM"),
    ("CCCCOCc1cc(NC2(C(=O)O)CCOCC2)ccc1-c1ccc(C)c(OCC)c1C", "human LPA1 (Homo sapiens, UniProt Q92633)", "< 0.1 µM"),
    ("CCOc1cc(OC)cc(-c2ccc(NC3(C(=O)O)CC(F)(F)C3)cc2COC2CC2)c1F", "human LPA1 (Homo sapiens, UniProt Q92633)", "< 0.1 µM"),
    ("CCOc1cc(OC)cc(-c2ccc(OC3(C(=O)O)CCOCC3)cc2COC2CCCC2)c1F", "human LPA1 (Homo sapiens, UniProt Q92633)", "< 0.1 µM"),
    ("COc1cc(-c2ccc(NC3(C(=O)O)CCOCC3)cc2COC2CCCC2)c(Cl)c(OC)n1", "human LPA1 (Homo sapiens, UniProt Q92633)", "< 0.1 µM"),
    ("CCOc1c(C)c(OC)cc(-c2ccc(NC3(C(=O)O)CC3)cc2COC2CC2)c1F", "human LPA1 (Homo sapiens, UniProt Q92633)", "< 0.1 µM"),
    ("COc1cc(OC2CC2)c(F)c(-c2ccc(OC3(C(=O)O)CCOCC3)cc2COC2CC2)c1", "human LPA1 (Homo sapiens, UniProt Q92633)", "0.1 to 1 µM"),
    ("CCOc1cc(OC)cc(-c2ccc(C3(C(=O)O)CC3)cc2COC2CCCC2)c1F", "human LPA1 (Homo sapiens, UniProt Q92633)", "0.1 to 1 µM"),
    ("COc1cc(-c2c(C)cc(NC3(C(=O)O)CCOCC3)cc2COC2CCCC2)nc(OC)c1C", "human LPA1 (Homo sapiens, UniProt Q92633)", "< 0.1 µM"),
    ("Cc1c(OC2CC2)cccc1-c1ccc(NC2(C(=O)O)CCC(F)(F)CC2)cc1COC1CC1", "human LPA1 (Homo sapiens, UniProt Q92633)", "< 0.1 µM"),
    ("CCOc1nccc(-c2ccc(NC3(C(=O)O)CCOCC3)cc2COC2CC2)c1C(F)F", "human LPA1 (Homo sapiens, UniProt Q92633)", "< 0.1 µM"),
    ("COc1cc(-c2ccc(OC3(C(=O)O)CCOCC3)cc2COC2CC2)c(Cl)c(OC)c1C", "human LPA1 (Homo sapiens, UniProt Q92633)", "< 0.1 µM"),
    ("COc1cc(-c2ccc(NCC(C)C(=O)O)cc2COC2Cc3ccccc3C2)cc(OC)c1C (centres unmarked)", "human LPA1 (Homo sapiens, UniProt Q92633)", "> 1 µM"),
    ("COc1cc(-c2ccc(NC3(C(=O)O)CCOCC3)cc2COCC2CCC2)c(F)c(OC)c1C", "human LPA1 (Homo sapiens, UniProt Q92633)", "< 0.1 µM"),
    ("COc1cc(-c2ccc(NC3(C(=O)O)CC(O)C3)cc2COC2Cc3ccccc3C2)cc(OC)c1C (centres unmarked) [Compound 131]", "human LPA1 (Homo sapiens, UniProt Q92633)", "0.1 to 1 µM"),
    ("CCOc1c(C)ccc(-c2ccc(NC3(C(=O)O)CC3)cc2COC2CC2)c1C", "human LPA1 (Homo sapiens, UniProt Q92633)", "< 0.1 µM"),
    ("COc1cc(-c2c(C)cc(NC3(C(=O)O)CCOCC3)cc2CCC2CCOC2)cc(OC)c1C (centres unmarked) [Compound 308]", "human LPA1 (Homo sapiens, UniProt Q92633)", "< 0.1 µM"),
    ("O=C(O)C1(Nc2ccc(-c3cccc(OC4CC4)c3Cl)c(COC3CC3)c2)CCC(F)(F)CC1", "human LPA1 (Homo sapiens, UniProt Q92633)", "< 0.1 µM"),
    ("COc1cc(-c2ccc(OC3(C(=O)O)CCOCC3)cc2COC2CCCC2)c(F)c(OC)c1C", "human LPA1 (Homo sapiens, UniProt Q92633)", "< 0.1 µM"),
    ("COc1cc(-c2ccc(NC3(C(=O)O)CCCOC3)cc2COC2CCCC2)c(C)c(OC)c1C (single isomer, unassigned) [Compound 201]", "human LPA1 (Homo sapiens, UniProt Q92633)", "< 0.1 µM"),
    ("COc1cc(OC2CC2)c(F)c(-c2ccc(NC3(C(=O)O)CCOCC3)cc2COC2CC2)c1", "human LPA1 (Homo sapiens, UniProt Q92633)", "< 0.1 µM"),
    ("COc1cc(-c2ccc(NC3(C(=O)O)CC(OC)C3)cc2COC2CCCC2)c(C)c(OC)c1C (centres unmarked) [Compound 197]", "human LPA1 (Homo sapiens, UniProt Q92633)", "< 0.1 µM"),
    ("CCCOc1cccc(-c2ccc(NC3(C(=O)O)CCOCC3)cc2COC2CC2)c1F", "human LPA1 (Homo sapiens, UniProt Q92633)", "< 0.1 µM"),
    ("COc1cc(-c2ccc(NC3(C(=O)O)CCOCC3)cc2COC2CC2)cc(OC2CC2)c1C", "human LPA1 (Homo sapiens, UniProt Q92633)", "0.1 to 1 µM"),
    ("CCOc1cccc(-c2ccc(NC3(C(=O)O)CCOCC3)cc2COC2CC2)c1C", "human LPA1 (Homo sapiens, UniProt Q92633)", "< 0.1 µM"),
    ("COc1cc(-c2ccc(NC3(C(=O)O)CCC(OC)CC3)cc2COC2CCCC2)cc(OC)c1C (centres unmarked)", "human LPA1 (Homo sapiens, UniProt Q92633)", "> 1 µM"),
    ("CCOc1c(C)c(OC)cc(-c2ccc(NC3(C(=O)O)CCOCC3)cc2COCC(C)C)c1F", "human LPA1 (Homo sapiens, UniProt Q92633)", "< 0.1 µM"),
    ("COc1cc(-c2ccc(NC3(C(=O)O)CCC(F)(F)CC3)cc2COC2CCCC2)cc(OC)c1C", "human LPA1 (Homo sapiens, UniProt Q92633)", "< 0.1 µM"),
]

###

// reported IC50 for each item listed
- Tested System: human LPA1 (Homo sapiens, UniProt Q92633)
- Construct: expressed in transfected cells; host or cells: CHO-K1
- Assay Method Text: In vitro LPA1 calcium flux antagonist assay - Bioduro protocol
- Assay type: cell-based
- Measurement Conditions: Table B3; CHO-K1 cells overexpressing human LPA1 and G15a, LPA challenge at EC80; read-out: Activity (IC50 class)
- Procedure: In Vitro LPA1 Calcium Flux Antagonist Assay—Bioduro Protocol CHO-K1 cells overexpressing human LPA1 and G15a were seeded at a total volume of 20 μL (15000 cells/well) into Matrigel pre-coated 384-well plates (corning −3764) and incubated at 37° C. […] Calcium mobilization was measured on a FLIPR Tetra (MSD). […] Percentage inhibition is calculated using the following formula: % Inhibition=100%×(1−(mean RFU of test sample−mean RFU of DMSO)/(mean RFU of LPA control−mean RFU of DMSO)). […]

# Molecule, IC50
rows = [
    ("COc1cc(OC)nc(-c2c(C)cc(NC3(C(=O)O)CCOCC3)cc2COC2CCCC2)c1", "> 1000 nM"),
    ("COc1cc(-c2ccc(NC3(C(=O)O)CCOCC3)cc2COCC(C)C)c(F)c(OC)c1C", "< 100 nM"),
    ("COC(=O)NC1CCC(Nc2ccc(-c3cc(OC)c(C)c(OC)c3)c(COC3CCCC3)c2)(C(=O)O)CC1 (centres unmarked)", "< 100 nM"),
    ("COc1cc(-c2ccc(NC3(C(=O)O)CCOCC3)cc2COC2CCCC2)cc(OC2CC2)c1C", "< 100 nM"),
    ("CCOc1cccc(-c2ccc(NC3(C(=O)O)CCC(F)(F)CC3)cc2COC2CC2)c1C", "< 100 nM"),
    ("CC(C)COc1cccc(-c2ccc(NC3(C(=O)O)CCOCC3)cc2COC2CCCC2)c1F", "< 100 nM"),
    ("CCOc1cc(OC)c(F)c(-c2ccc(NC3(C(=O)O)CCOCC3)cc2COC2CCCC2)c1", "100 to 1000 nM"),
    ("COc1cc(-c2ccc(NC3(C(=O)O)CC3)cc2COC2Cc3ccccc3C2)c(C)c(OC)c1C(C)=O", "100 to 1000 nM"),
]
